- Measured Target: LRRK2 wild-type (Homo sapiens (Human), UniProt Q5S007)
- Sequence (Q5S007 970-2527): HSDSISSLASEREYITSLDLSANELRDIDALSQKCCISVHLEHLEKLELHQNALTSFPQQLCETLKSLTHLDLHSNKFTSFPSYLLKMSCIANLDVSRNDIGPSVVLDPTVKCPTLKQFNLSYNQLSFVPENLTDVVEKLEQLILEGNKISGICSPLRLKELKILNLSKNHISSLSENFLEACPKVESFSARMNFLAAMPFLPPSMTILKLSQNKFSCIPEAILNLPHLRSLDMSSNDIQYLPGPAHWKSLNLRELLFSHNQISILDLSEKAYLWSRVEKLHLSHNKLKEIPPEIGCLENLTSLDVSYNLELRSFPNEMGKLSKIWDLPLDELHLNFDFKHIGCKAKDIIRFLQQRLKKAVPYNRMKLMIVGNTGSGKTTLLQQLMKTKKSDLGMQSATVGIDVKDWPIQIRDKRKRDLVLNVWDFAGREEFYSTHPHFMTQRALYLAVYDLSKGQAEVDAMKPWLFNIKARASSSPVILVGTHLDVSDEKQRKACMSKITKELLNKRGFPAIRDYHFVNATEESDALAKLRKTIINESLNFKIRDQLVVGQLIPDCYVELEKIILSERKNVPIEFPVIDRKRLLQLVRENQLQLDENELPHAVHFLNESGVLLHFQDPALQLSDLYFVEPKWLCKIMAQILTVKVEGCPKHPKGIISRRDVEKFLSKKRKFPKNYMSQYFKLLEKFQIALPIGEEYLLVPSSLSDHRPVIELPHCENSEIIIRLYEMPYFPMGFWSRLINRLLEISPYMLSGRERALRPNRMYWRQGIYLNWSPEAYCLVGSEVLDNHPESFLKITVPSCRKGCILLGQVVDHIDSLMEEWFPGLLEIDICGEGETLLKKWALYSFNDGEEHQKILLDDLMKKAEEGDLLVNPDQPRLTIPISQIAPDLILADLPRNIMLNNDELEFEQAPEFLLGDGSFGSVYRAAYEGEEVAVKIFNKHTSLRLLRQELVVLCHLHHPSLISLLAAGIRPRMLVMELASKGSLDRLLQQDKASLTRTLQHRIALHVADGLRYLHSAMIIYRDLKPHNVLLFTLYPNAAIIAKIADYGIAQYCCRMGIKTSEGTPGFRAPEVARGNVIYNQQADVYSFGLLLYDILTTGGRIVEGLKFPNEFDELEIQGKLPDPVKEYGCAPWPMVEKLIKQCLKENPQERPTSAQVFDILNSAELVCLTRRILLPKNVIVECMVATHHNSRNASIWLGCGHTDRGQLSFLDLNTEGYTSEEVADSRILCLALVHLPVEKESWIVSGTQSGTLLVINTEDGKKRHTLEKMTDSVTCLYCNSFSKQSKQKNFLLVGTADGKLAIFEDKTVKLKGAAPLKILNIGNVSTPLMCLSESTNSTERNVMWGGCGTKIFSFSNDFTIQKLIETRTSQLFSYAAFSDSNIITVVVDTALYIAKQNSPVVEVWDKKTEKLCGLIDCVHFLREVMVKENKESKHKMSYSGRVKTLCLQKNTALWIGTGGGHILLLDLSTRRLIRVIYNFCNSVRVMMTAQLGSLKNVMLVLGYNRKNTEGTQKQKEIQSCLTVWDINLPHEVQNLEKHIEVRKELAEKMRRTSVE
- Experiment Description: LanthaScreen LRRK2 Biochemical Activity Assay
- Condition Details: human recombinant LRRK2 (amino acids 970-2527) wild-type, ATP 57 μM, TR-FRET; read-out: IC50 (nM), inhibition of LRRK2 wild-type kinase activity
- Experimental: The ability of a compound of Formula (I) to inhibit LRRK2 kinase activity is measured using a LanthaScreen™ kinase activity assay. […] The TR-FRET value is a dimensionless number that is calculated as the ratio of the acceptor (fluorescein) signal to the donor (terbium) signal. […] The assay signal is determined as a ratio of FRET-specific signal measured with emission filter at 520 nm to that of the signal measured with Tb-specific emission filter at 495 nm. […]
Result Type: IC50

INSERT INTO results (molecule, measured_target, result_type, result) VALUES
  ('c1cc(-c2cnn3ccc(N4CCOCC4)cc23)nc(C2CCCNC2)c1 (stereo not drawn) [Example 16]', 'LRRK2 wild-type (Homo sapiens (Human), UniProt Q5S007)', 'IC50', '101 to 400 nM'),
  ('C[C@@H]1CN(c2cc(Cl)cc(-c3cnn4ccc(C(F)(F)F)cc34)n2)C[C@H](C)N1 [Example 56]', 'LRRK2 wild-type (Homo sapiens (Human), UniProt Q5S007)', 'IC50', '≤ 10 nM'),
  ('CS(=O)(=O)NCC(=O)N1CCCC(c2cccc(-c3cnn4ccccc34)n2)C1 (stereo not drawn) [Example 25]', 'LRRK2 wild-type (Homo sapiens (Human), UniProt Q5S007)', 'IC50', '101 to 400 nM'),
  ('Clc1ccc(-c2cnn3ccccc23)nc1C1CCCNC1 (stereo not drawn) [Example 29]', 'LRRK2 wild-type (Homo sapiens (Human), UniProt Q5S007)', 'IC50', '11 to 100 nM'),
  ('Clc1cc(-c2cnn3ccc(Cl)cc23)nc(C2CCCNC2)c1 (stereo not drawn) [Example 34]', 'LRRK2 wild-type (Homo sapiens (Human), UniProt Q5S007)', 'IC50', '11 to 100 nM'),
  ('C[C@@H]1CN(c2cccc(-c3cnn4ccc(C(F)(F)F)cc34)n2)C[C@H](C)N1 [Example 55]', 'LRRK2 wild-type (Homo sapiens (Human), UniProt Q5S007)', 'IC50', '≤ 10 nM'),
  ('C[C@@H]1CN(c2cccc(-c3cnn4ccccc34)n2)C[C@H](C)N1 [Example 49]', 'LRRK2 wild-type (Homo sapiens (Human), UniProt Q5S007)', 'IC50', '11 to 100 nM'),
  ('FC(F)(F)c1ccn2ncc(-c3cc(Cl)cc(N4CCNCC4)n3)c2c1 [Example 41]', 'LRRK2 wild-type (Homo sapiens (Human), UniProt Q5S007)', 'IC50', '11 to 100 nM'),
  ('c1cc(-c2cnn3ccc(C4CC4)cc23)nc(C2CCCNC2)c1 (stereo not drawn) [Example 18]', 'LRRK2 wild-type (Homo sapiens (Human), UniProt Q5S007)', 'IC50', '11 to 100 nM');

====

- Measured Target: LRRK2 wild-type (Homo sapiens (Human), UniProt Q5S007)
- Experiment Description: LanthaScreen LRRK2 Biochemical Activity Assay
- Condition Details: human recombinant LRRK2 (amino acids 970-2527) wild-type, ATP 57 μM, TR-FRET; read-out: IC50 (nM), inhibition of LRRK2 wild-type kinase activity
Entries and their IC50
Result Type: IC50

INSERT INTO measurements (compound, result) VALUES
  ('Clc1ccn2ncc(-c3cccc(N4CC5CC(C4)N5)n3)c2c1', '11 to 100 nM'),
  ('CN1CCC(c2cccc(-c3cnn4ccccc34)n2)CC1', '101 to 400 nM'),
  ('C[C@@H]1CN(c2cc(Cl)cc(-c3cnn4ccccc34)n2)C[C@H](C)N1', '11 to 100 nM'),
  ('C[C@@H]1CN(c2nc(-c3cnn4ccc(Cl)cc34)ccc2Cl)C[C@H](C)N1', '101 to 400 nM'),
  ('O=C(COc1ccccn1)Nc1ccn2ncc(-c3cccc(C4CCCNC4)n3)c2c1 (stereo not shown)', '11 to 100 nM'),
  ('Cc1ccn2ncc(-c3cccc(C4CCCNC4)n3)c2c1 (stereo not shown)', '11 to 100 nM'),
  ('O=C(Cc1cccnc1)Nc1ccn2ncc(-c3cccc(C4CCCNC4)n3)c2c1 (stereo not shown)', '11 to 100 nM');

====

Entries and their IC50
- Measured Target: LRRK2 wild-type (Homo sapiens (Human))
- Experiment Description: LanthaScreen LRRK2 Biochemical Activity Assay
- Condition Details: human recombinant LRRK2 (amino acids 970-2527) wild-type, ATP 57 μM, TR-FRET; read-out: IC50 (nM), inhibition of LRRK2 wild-type kinase activity
Result Type: IC50

INSERT INTO measurements (molecule, measured_target, result) VALUES
  ('c1cc(-c2cnn3ccccc23)nc(N2CC3CCC2CN3)c1 (stereo not drawn) [Example 48]', 'LRRK2 wild-type (Homo sapiens (Human))', '101 to 400 nM'),
  ('Clc1ccn2ncc(-c3cccc(C4CCCNC4)n3)c2c1 (racemic) [Example 5]', 'LRRK2 wild-type (Homo sapiens (Human))', '11 to 100 nM'),
  ('C[C@@H]1CN(c2cc(F)cc(-c3cnn4ccccc34)n2)C[C@H](C)N1 [Example 52]', 'LRRK2 wild-type (Homo sapiens (Human))', '11 to 100 nM'),
  ('O=C(CNc1ccncc1)Nc1ccn2ncc(-c3cccc(C4CCCNC4)n3)c2c1 (stereo not drawn) [Example 79]', 'LRRK2 wild-type (Homo sapiens (Human))', '11 to 100 nM'),
  ('Fc1ccc(-c2cnn3ccccc23)nc1C1CCCNC1 (stereo not drawn) [Example 33]', 'LRRK2 wild-type (Homo sapiens (Human))', '101 to 400 nM'),
  ('Fc1ccc(C2CCCNC2)nc1-c1cnn2ccccc12 (stereo not drawn) [Example 32]', 'LRRK2 wild-type (Homo sapiens (Human))', '11 to 100 nM'),
  ('CNc1ccn2ncc(-c3cc(Cl)cc(N4C[C@@H](C)N[C@@H](C)C4)n3)c2c1 [Example 54]', 'LRRK2 wild-type (Homo sapiens (Human))', '11 to 100 nM'),
  ('Clc1cc(-c2cnn3ccc(Cl)cc23)nc(N2CCNCC2)c1 [Example 43]', 'LRRK2 wild-type (Homo sapiens (Human))', '11 to 100 nM'),
  ('CS(=O)(=O)N1CCCC(c2cccc(-c3cnn4ccccc34)n2)C1 (stereo not drawn) [Example 26]', 'LRRK2 wild-type (Homo sapiens (Human))', '101 to 400 nM');

====

Entries and their IC50
- Measured Target: LRRK2 wild-type (Homo sapiens (Human))
- Experiment Description: LanthaScreen LRRK2 Biochemical Activity Assay
- Condition Details: human recombinant LRRK2 (amino acids 970-2527) wild-type, ATP 57 μM, TR-FRET; read-out: IC50 (nM), inhibition of LRRK2 wild-type kinase activity
Result Type: IC50

INSERT INTO measurements (compound, result_type, result) VALUES
  ('Clc1cc(-c2cnn3ccccc23)nc(C2CCCNC2)c1 (stereo not shown)', 'IC50', '11 to 100 nM'),
  ('C[C@@H]1CN(c2ccc(F)c(-c3cnn4ccc(Cl)cc34)n2)C[C@H](C)N1', 'IC50', '11 to 100 nM'),
  ('N#Cc1ccn2ncc(-c3cccc(C4CCCNC4)n3)c2c1 (stereo not shown)', 'IC50', '11 to 100 nM'),
  ('COc1cc(-c2cnn3ccccc23)nc(C2CCCNC2)c1 (stereo not shown)', 'IC50', '101 to 400 nM'),
  ('N#CCCCC(=O)Nc1ccn2ncc(-c3cccc(C4CCCNC4)n3)c2c1 (stereo not shown)', 'IC50', '11 to 100 nM'),
  ('Fc1cc(-c2cnn3ccc(Cl)cc23)nc(C2CCCNC2)c1 (stereo not shown)', 'IC50', '11 to 100 nM'),
  ('C[C@@H]1CN(c2cc(Cl)cc(-c3cnn4ccc(Cl)cc34)n2)C[C@H](C)N1', 'IC50', '≤ 10 nM'),
  ('CS(=O)(=O)NCC(=O)Nc1ccn2ncc(-c3cccc(C4CCCNC4)n3)c2c1 (stereo not shown)', 'IC50', '11 to 100 nM'),
  ('Clc1cc(-c2cnn3ccc(Cl)cc23)nc(N2CC3CC(C2)N3)c1', 'IC50', '101 to 400 nM'),
  ('FC(F)(F)c1ccn2ncc(-c3cccc(N4CCNCC4)n3)c2c1', 'IC50', '11 to 100 nM'),
  ('CS(=O)(=O)NCCC(=O)Nc1ccc2c(-c3cccc(C4CCCNC4)n3)cnn2c1 (stereo not shown)', 'IC50', '101 to 400 nM'),
  ('Oc1ccn2ncc(-c3cccc(C4CCCNC4)n3)c2c1 (stereo not shown)', 'IC50', '101 to 400 nM'),
  ('c1cc(-c2cnn3ccccc23)nc(C2CCNC2)c1 (stereo not shown)', 'IC50', '101 to 400 nM'),
  ('FC(F)(F)c1ccn2ncc(-c3cc(Cl)cc(C4CCCNC4)n3)c2c1 (stereo not shown)', 'IC50', '11 to 100 nM'),
  ('CNc1ccn2ncc(-c3cccc(N4C[C@@H](C)N[C@@H](C)C4)n3)c2c1', 'IC50', '11 to 100 nM'),
  ('Fc1cc(-c2cnn3ccc(Cl)cc23)nc(N2CCNCC2)c1', 'IC50', '11 to 100 nM'),
  ('CC(C)Oc1ccn2ncc(-c3cccc(C4CCCNC4)n3)c2c1 (stereo not shown)', 'IC50', '11 to 100 nM'),
  ('N#CCCC(=O)Nc1ccn2ncc(-c3cccc(C4CCCNC4)n3)c2c1 (stereo not shown)', 'IC50', '11 to 100 nM'),
  ('Clc1ccn2ncc(-c3cccc(C4CCNC4)n3)c2c1 (stereo not shown)', 'IC50', '11 to 100 nM'),
  ('O=C(CNc1cccnc1)Nc1ccn2ncc(-c3cccc(C4CCCNC4)n3)c2c1 (stereo not shown)', 'IC50', '11 to 100 nM'),
  ('Fc1cc(-c2cnn3ccccc23)nc(C2CCCNC2)c1 (stereo not shown)', 'IC50', '101 to 400 nM'),
  ('c1cc(-c2cnn3ccc(OCC4CC4)cc23)nc(C2CCCNC2)c1 (stereo not shown)', 'IC50', '101 to 400 nM'),
  ('COc1ccn2ncc(-c3cccc(C4CCCNC4)n3)c2c1 (stereo not shown)', 'IC50', '11 to 100 nM'),
  ('C[C@@H]1CN(c2ccc(Cl)c(-c3cnn4ccc(Cl)cc34)n2)C[C@H](C)N1', 'IC50', '≤ 10 nM'),
  ('CC(C)Oc1ccn2ncc(-c3cc(Cl)cc(C4CCCNC4)n3)c2c1 (stereo not shown)', 'IC50', '≤ 10 nM'),
  ('c1cc(-c2cnn3ccccc23)nc(N2CCNCC2)c1', 'IC50', '101 to 400 nM'),
  ('CC1(C)CN(c2cccc(-c3cnn4ccc(Cl)cc34)n2)CC(C)(C)N1', 'IC50', '≤ 10 nM'),
  ('C[C@@H]1CN(c2nc(-c3cnn4ccc(Cl)cc34)ccc2F)C[C@H](C)N1', 'IC50', '≤ 10 nM'),
  ('O=C(Nc1ccn2ncc(-c3cccc(C4CCCNC4)n3)c2c1)c1ccccn1 (stereo not shown)', 'IC50', '11 to 100 nM'),
  ('Clc1ccn2ncc(-c3cccc([C@H]4CCCNC4)n3)c2c1 (single isomer, unassigned)', 'IC50', '≤ 10 nM'),
  ('c1cc(-c2cnn3ccc(OCC4COC4)cc23)nc(C2CCCNC2)c1 (stereo not shown)', 'IC50', '101 to 400 nM'),
  ('CNc1ccn2ncc(-c3cc(Cl)cc(N4CCNCC4)n3)c2c1', 'IC50', '11 to 100 nM'),
  ('Clc1ccn2ncc(-c3cccc([C@@H]4CCCNC4)n3)c2c1 (single isomer, unassigned)', 'IC50', '101 to 400 nM'),
  ('Nc1ccn2ncc(-c3cccc(C4CCCNC4)n3)c2c1 (stereo not shown)', 'IC50', '101 to 400 nM'),
  ('CNc1ccn2ncc(-c3cc(Cl)cc(C4CCCNC4)n3)c2c1 (stereo not shown)', 'IC50', '11 to 100 nM'),
  ('C[C@@H]1CN(c2cc(F)cc(-c3cnn4ccc(Cl)cc34)n2)C[C@H](C)N1', 'IC50', '≤ 10 nM'),
  ('C[C@@H]1CN(c2cccc(-c3cnn4ccc(Cl)cc34)n2)C[C@H](C)N1', 'IC50', '≤ 10 nM');
